The reported measurements were obtained from PubChem BioAssay (NCI).

# System: SNB-19 CNS
# experimentNotes: NCI tumour cell line growth inhibition, 48 h; in the data active means GI50 below about 0.43 µM; inactive means the rest
I would appreciate it if you answered using one of these outcomes: 1 (yes) = active, 0 (no) = inactive

Task: Assay outcome for `O=C1/C(=C/c2ccc(Cl)cc2)CN(C(=O)CCN2CCC(=NO)CC2)C/C1=C\c1ccc(Cl)cc1` : what was it?
Result: 0 (no)

Task: Assay outcome for `CC(=O)Nc1ccc(-c2csc(Nc3cccc(-c4csc(-c5ccccc5)n4)c3)n2)cc1` : what was it?
Result: 0 (no)

Task: Assay outcome for `CCOC(=O)Cn1c(-c2nonc2NC(=O)c2ccccc2F)nc2ccccc21` : what was it?
Result: 0 (no)

Task: Assay outcome for `COc1ccc(-c2nc(-c3ccccn3)c(-c3ccccn3)n2CC(C)C)cc1OC1CCCC1` : what was it?
Result: 0 (no)

Task: Assay outcome for `Clc1ccc2nc(Cl)c3ccccc3c2c1` : what was it?
Result: 0 (no)

---

# Test system: M19-MEL melanoma
# experimentNotes: NCI tumour cell line growth inhibition, 48 h
observedProperty: TGI

- molecule: "O=C1CCNC(=O)NC1"
  valueReported: "> 100 µM"

Task: Query (molecule): `CCCC(=O)c1ccc(=O)n(C)c1` ; field requested: TGI
Result: > 100 µM

Task: Query (molecule): O=S1c2ccccc2NC(c2ccc3ccccc3c2)CC1c1ccccc1 (stereo not given) ; field requested: TGI
Result: 43.3 µM

Task: Query (molecule): `CN(C)CCNC(=O)c1c2ccccc2cc2ccccc12` ; field requested: TGI
Result: > 100 µM

Task: Query (molecule): `O=C1CCCC(O)=C1SC1=C(O)CCCC1=O` ; field requested: TGI
Result: > 100 µM

---

# Tested on: SF-539 CNS
# experimentNotes: NCI tumour cell line growth inhibition, 48 h
observedProperty: TGI

- compound: "C[N+](C)(C)CC(CC(=O)[O-])C1CC1 (stereo unspecified)"
  TGI: "> 100 µM"
- compound: "Nc1nccc2c1ccn2-c1cccc(NC(=O)c2ccc(N3CCOCC3)c(C(F)(F)F)c2)c1"
  TGI: "4 µM"
- compound: "CC(C)=CC(=O)N[C@@H]1CC2CCC3C(CC[C@@]4(C)C3CC[C@@H]4C(C)N(C)C)[C@@]2(C)C[C@@H]1O (stereo partly specified)"
  TGI: "3.36 µM"

Task: Query (compound): CN1C=COC1N=C1CCCCC1 (stereo unspecified) ; field requested: TGI
Result: > 100 µM

Task: Query (compound): `O=C1c2cccnc2-c2nccc3c2c1nc1ccc(Br)cc13` ; field requested: TGI
Result: 0.141 µM

Task: Query (compound): CCCCCCCCCCCCCCCC(=O)OCC1OC(OC)C(NC(=O)N(CCCl)N=O)C(O)C1O (stereo unspecified) ; field requested: TGI
Result: 15.3 µM

Task: Query (compound): `C=CCOCn1ccc(N)nc1=O` ; field requested: TGI
Result: > 100 µM

Task: Query (compound): `CCOC(=O)Cn1c(-c2nonc2NC(=O)c2ccccc2F)nc2ccccc21` ; field requested: TGI
Result: > 100 µM

Task: Query (compound): CCC(C)c1cccc(C)c1NC(=O)C(=O)Cc1nc2ccccc2s1 (stereo unspecified) ; field requested: TGI
Result: > 100 µM

---

TGI for assorted molecules
# System: RPMI-8226 leukemia
# experimentNotes: NCI tumour cell line growth inhibition, 48 h

Worked cases, TGI given:
- molecule: "COC12C=CC(CC1)C(C)(C)C2OS(C)(=O)=O (stereo unspecified)"
  tgt: "RPMI-8226 leukemia"
  valueReported: "> 100 µM"
- molecule: "O=c1[nH]nc(Cc2ccc(Cl)cc2)n1/N=C/c1c[nH]c2ccccc12"
  tgt: "RPMI-8226 leukemia"
  valueReported: "> 100 µM"
- molecule: "CCN(CC)c1ccc2cc(C(N)=O)c(=Nc3ccc(F)cc3)oc2c1"
  tgt: "RPMI-8226 leukemia"
  valueReported: "> 100 µM"
- molecule: "Cc1ccc2c(=O)cc(Cc3csc4ccccc34)[nH]c2n1"
  tgt: "RPMI-8226 leukemia"
  valueReported: "> 100 µM"
- molecule: "O=C(Cc1ccc(Nc2ccnc(C(F)(F)F)c2)cc1)Nc1cc(Cl)ccc1O"
  tgt: "RPMI-8226 leukemia"
  valueReported: "4.1 µM"

Task: Query (molecule): `COc1ccc(-c2nc(-c3ccccn3)c(-c3ccccn3)n2CC(C)C)cc1OC1CCCC1` ; field requested: TGI
Result: 80.5 µM

---

# System: HCC-2998 colon
# experimentNotes: NCI tumour cell line growth inhibition, 48 h
TGI for assorted compounds

Worked cases, TGI given:
- compound: "O=C(CSCC(=O)N/N=C\\c1ccccc1F)N/N=C\\c1ccccc1F"
  valueReported: "> 100 µM"
- compound: "COc1ccc2c(c1)[nH]c(=O)c1c3cc(OC)c(OC)cc3cn21"
  valueReported: "0.0768 µM"
- compound: "COc1cc(OC)c(F)c(COc2cnc(Nc3cnn(CCO)c3)nc2)c1F"
  valueReported: "> 100 µM"
- compound: "O=c1c2c(=NCCN3CCCC3)cc3c(=O)n(CCCN4CCOCC4)c(=O)c4ccc(c(O)n1CCCN1CCOCC1)c2c4-3"
  valueReported: "0.563 µM"

Below: the item to evaluate.
Task: Query (compound): `CC1=CC(=O)/C(=C/n2c(=S)[nH]c3cc(C)ccc32)C(=O)O1` ; field requested: TGI
Result: > 100 µM

---

# Tested on: SF-295 CNS
# experimentNotes: NCI tumour cell line growth inhibition, 48 h
TGI for assorted compounds

Worked cases, TGI given:
- compound: "Nc1ccccc1OCCCOc1ccccc1N"
  tgt: "SF-295 CNS"
  observedProperty: "TGI"
  valueReported: "> 100 µM"
- compound: "COc1ccc(-c2nnc(SCC(=O)Nc3ccc(C(=O)/C=C/c4cc(OC)c(OC)c(OC)c4)cc3)n2-c2ccccc2)cc1OC"
  tgt: "SF-295 CNS"
  observedProperty: "TGI"
  valueReported: "> 10 µM"
- compound: "COC1C(CO)OC(n2c3c(Cl)cccc3c3c4c(c5c6cccc(Cl)c6[nH]c5c32)C(=O)NC4=O)C(O)C1O (stereo not given)"
  tgt: "SF-295 CNS"
  observedProperty: "TGI"
  valueReported: "4.32 µM"
- compound: "COc1cc(C(=O)O/N=C(\\N)Cc2cccc3ccccc23)cc(OC)c1OC"
  tgt: "SF-295 CNS"
  observedProperty: "TGI"
  valueReported: "13.7 µM"

Below: the item to evaluate.
Task: Query (compound): O=C1O[C@H]2C3C4CCC(C4[C@@H]2I)[C@H]13 (stereo not given in full) ; field requested: TGI
Result: > 100 µM

---

TGI for assorted molecules
# Test system: NCI/ADR-RES ovarian
# experimentNotes: NCI tumour cell line growth inhibition, 48 h

Worked cases, TGI given:
- molecule: "O=C(c1nn(-c2ccc(Cl)cc2)cc1O)n1nc(C(F)(F)F)cc1-c1ccccc1"
  TGI: "> 35.9 µM"
- molecule: "CC1C(C#N)(C#N)C(C#N)=C(N)C1(C)[N+](=O)[O-] (stereo not given)"
  TGI: "> 100 µM"
- molecule: "CC1=CC(=O)/C(=C/n2c(=S)[nH]c3cc(C)ccc32)C(=O)O1"
  TGI: "> 100 µM"
- molecule: "Nc1nccc2c1ccn2-c1cccc(NC(=O)c2ccc(N3CCOCC3)c(C(F)(F)F)c2)c1"
  TGI: "> 10.2 µM"

Below: the item to evaluate.
Task: Query (molecule): `COc1cnc2c(c1)C(=O)c1c-2n(CCCNCCN2CCOCC2)c(=O)c2cc([N+](=O)[O-])ccc12` ; field requested: TGI
Result: 1.45 µM

---

# Test system: ACHN renal
# experimentNotes: NCI tumour cell line growth inhibition, 48 h
TGI for assorted compounds

Worked cases, TGI given:
- compound: "CN(C)c1ccc2cc3ccc(N(C)C)cc3nc2c1"
  TGI: "3.67 µM"
- compound: "COc1cc(S(=O)(=O)Nc2ccc(-c3csc(N4C(=O)C(C)SC4c4ccccc4)n3)cc2)ccc1Cl (stereo not given)"
  TGI: "> 100 µM"
- compound: "COc1cc(C2c3cc(OC)c(OC)c(O)c3C(=O)C3CCC(=O)N32)cc(OC)c1OC (stereo not given)"
  TGI: "> 100 µM"
- compound: "COc1cc2c(c(OC)c1OC)-c1ccc(SC)c(=O)cc1[C@@H](NCc1cccc([N+](=O)[O-])c1)CC2"
  TGI: "> 100 µM"
- compound: "COC12C=CC(CC1)C(C)(C)C2OS(C)(=O)=O (stereo not given)"
  TGI: "> 100 µM"
- compound: "COC1C(CO)OC(n2c3c(Cl)cccc3c3c4c(c5c6cccc(Cl)c6[nH]c5c32)C(=O)NC4=O)C(O)C1O (stereo not given)"
  TGI: "1.47 µM"
- compound: "O=c1[nH]nc(Cc2ccc(Cl)cc2)n1/N=C/c1c[nH]c2ccccc12"
  TGI: "> 100 µM"
- compound: "NCCS(=O)(=O)O"
  TGI: "> 100 µM"

Below: the item to evaluate.
Task: Query (compound): `CNC(=O)c1cc(Oc2ccc3nc(N[C@@H]4CCCC[C@H]4O)sc3c2)ccn1` ; field requested: TGI
Result: > 100 µM
